Target: T1, mouse B7-H3 expressed on the surface of mouse cancer cell lines (CT26, B16F10, TC-1) (mouse, UniProt Q8VE98 29-316)
T1 construct: whole, on cells; also called 세포 표면 발현 마우스 B7-H3
T1 sequence (looked up): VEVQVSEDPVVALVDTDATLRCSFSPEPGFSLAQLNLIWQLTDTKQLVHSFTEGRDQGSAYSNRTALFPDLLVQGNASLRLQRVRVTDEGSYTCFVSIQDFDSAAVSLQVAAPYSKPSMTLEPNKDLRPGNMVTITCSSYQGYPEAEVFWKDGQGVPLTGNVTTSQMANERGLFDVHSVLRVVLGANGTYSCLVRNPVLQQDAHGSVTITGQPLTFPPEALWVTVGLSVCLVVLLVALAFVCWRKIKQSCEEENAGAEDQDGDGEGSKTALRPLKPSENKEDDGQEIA
Assay: flow cytometry on CT26, B16F10 and TC-1 cells, 10 ㎍/㎖
property: binding result

Quick note, binding result for anti-B7-H3 antibody 10F11 (full IgG form) (antibody, V domains shown) VH: EVQLLESGGGLVQPGGSLRLSCAASGFTFSSYGMSWVRQAPGKGLEWVSGIYSGGSSKYYADSVKGRFTISRDNSKNTLYLQMNSLRAEDTAVYYCAKNRLRFDYWGQGTLVTVSS VL: QSVLTQPPSASGTPGQRVTISCTGSSSNIGSNSVTWYQQLPGTAPKLLIYSDSHRPSGVPDRFSGSKSGTSASLAISGLRSEDEADYYCGTWDASLNAYVFGGGTKLTVLG landed at binds

anti-B7-H3 antibody B5 (full IgG form) (antibody, V domains shown) VH: EVQLLESGGGLVQPGGSLRLSCAASGFTFSDYAMSWVRQAPGKGLEWVSSISSGSGSIYYADSVKGRFTISRDNSKNTLYLQMNSLRAEDTAVYYCAKNLIPLDYWGQGTLVTVSS VL: QSVLTQPPSASGTPGQRVTISCSGSSSNIGSNAVSWYQQLPGTAPKLLIYYNSHRPSGVPDRFSGSKSGTSASLAISGLRSEDEADYYCGSWDASLNAYVFGGGTKLTVLG has a reported binding result of binds

Form field binding result, entry anti-B7-H3 antibody C4I (full IgG form) (antibody, V domains shown) VH: EVQLLESGGGLVQPGGSLRLSCAASGFTFSGYYMSWVRQAPGKGLEWVSLISPSSGSIYYADSVKGRFTISRDNSKNTLYLQMNSLRAEDTAVYYCAKGLTKFDYWGQGTLVTVSS VL: QSVLTQPPSASGTPGQRVTISCTGSSSNIGSNDVSWYQQLPGTAPKLLIYANSHRPSGVPDRFSGSKSGTSASLAISGLRSEDEADYYCGSWDDSLSGYVFGGGTKLTVLG : binds
